- Measured on: P. xylostella WT RyR (Plutella xylostella, UniProt K7W8M2)
- Assay details: Calcium fluorescence (Fluo8, FLIPR Tetra), Sf9 cells stably expressing wild-type RyR (Sf9-wtRyR)
- Assay type: cell-based
Experimental readout: pEC50
Convention used: pEC50 is expressed as -log10 of the molar concentration.

Consider CNC(=O)c1cc(Cl)cc(C)c1NC(=O)c1cc(Br)nn1-c1ncccc1Cl [chlorantraniliprole] . Its measured pEC50 is 7.77

----------
- Measured on: P. xylostella WT RyR (Plutella xylostella)
- Assay details: Calcium fluorescence (Fluo8, FLIPR Tetra), Sf9 cells stably expressing wild-type RyR (Sf9-wtRyR)
- Type: cell-based
- Condition label: Sf9-wtRyR, stable WT RyR, Fluo8; ± standard error printed; read-out: EC50 (half-maximal integrated calcium signal)
- Description: Single Sf9 cell clones stably expressing either the wild-type (Sf9-wtRyR) or the G4946E (Sf9-mRyR) RyR channel were isolated after a few cycles of clonal selection. […] Fluorescence of the calcium-Fluo8 complex was measured as a function of time. Measurements of the integrated calcium signals as a function of the diamide concentration, gave characteristic dose-response curves, from which apparent EC50 concentrations for flubendiamide-sulfoxide and chlorantraniliprole were calculated (Fig. 6). […]
Experimental readout: pEC50
Convention used: pEC50 is expressed as -log10 of the molar concentration.

Consider Cc1cc(C(F)(C(F)(F)F)C(F)(F)F)ccc1NC(=O)c1cccc(I)c1C(=O)NC(C)(C)C[S+](C)[O-] (stereo not shown) [flubendiamide sulfoxide] . Its measured pEC50 is 6.61

----------
- Measured on: P. xylostella WT RyR (Plutella xylostella)
Experimental readout: Kd

Consider CC(C)[C@@]1(O)[C@@H](OC(=O)c2ccc[nH]2)[C@@]2(O)[C@@]3(C)C[C@]4(O)O[C@@]5([C@H](O)[C@@H](C)CC[C@]35O)[C@@]2(O)[C@@]14C [ryanodine] . Its measured Kd is 12.9 nM

----------
- Measured on: P. xylostella G4946E RyR (Plutella xylostella, UniProt K7W8M2, G4900E)
- Assay details: Calcium fluorescence (Fluo8, FLIPR Tetra), Sf9 cells stably expressing G4946E RyR (Sf9-mRyR)
- Format: cell-based
- Condition label: Sf9-mRyR, stable G4946E RyR, Fluo8; ± standard error printed; read-out: EC50 (half-maximal integrated calcium signal)
- Procedure: Figure 6 Calcium transients in Sf9 cells stably expressing either the P. xylostella WT (●) or the modified (G4946E) RyR (▲) as a function of the diamide concentration. Calcium-dye (Fluo8) fluorescence was measured after (a) flubendiamide-sulfoxide or (b) chlorantraniliprole application as a function of time. The integrated fluorescence signals were plotted against the logarithm of the effector concentration. Data fitting and EC50 calculations were performed with the SigmaPlot v13 software package. […]
Experimental readout: EC50

EC50 of Cc1cc(C(F)(C(F)(F)F)C(F)(F)F)ccc1NC(=O)c1cccc(I)c1C(=O)NC(C)(C)C[S+](C)[O-] (stereo not shown) [flubendiamide sulfoxide] , assay on P. xylostella G4946E RyR (Plutella xylostella, UniProt K7W8M2, G4900E), is > 20 µM

Source of measurements: paper PMC5289073
